Origin of values: the Human Domainome abundance scans (Beltran et al. 2025)

Listing of recorded abundance fitness by entry.
B1: Intersectin-1, residues 909 to 971; numbered along this chain, Q15811 (parent)
chain: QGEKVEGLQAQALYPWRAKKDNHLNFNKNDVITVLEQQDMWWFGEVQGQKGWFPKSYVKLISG

variants of: B1; assay: abundance fitness (aPCA) (normalised: wild type 0, dead -1); higher = more abundant; growth selection in yeast, the domain comes from the species named; conditions: Homo sapiens
Lab note: jot the number down without any unit.

Solved cases below.
Ask: Indicate the recorded abundance fitness value for this variant: A10M
Result: -0.223

Ask: Indicate the recorded abundance fitness value for this variant: S62K
Result: -0.158

Ask: Indicate the recorded abundance fitness value for this variant: F53Q
Result: -1.03

Next:
Ask: Indicate the recorded abundance fitness value for this variant: A18Q
Result: -0.494

Ask: Indicate the recorded abundance fitness value for this variant: K50A
Result: -0.183

Ask: Indicate the recorded abundance fitness value for this variant: F43T
Result: -0.811
